# Test system: EV-D68 viral capsid protein VP1
# Protocol text: VP1 expression by immunofluorescence imaging and western blot
# Assay type: cell-based, Enterovirus D68 (EV-D68)
# Conditions used: 1 μM, RD cells, US/KY/14-18953 MOI=1, 9 hpi, immunofluorescence imaging and western blot
Measurement name: VP1 protein expression

>  <Molecule>
CN(C)CCNC(=O)c1cc(-c2cccs2)nc2ccccc12 [Compound 12a]

>  <Assayed target>
EV-D68 viral capsid protein VP1

>  <Observed result>
completely blocked

$$$$
>  <Molecule>
CN(C)CCNC(=O)c1cc(-c2ccccc2)nc2ccccc12 [Compound 10a]

>  <Assayed target>
EV-D68 viral capsid protein VP1

>  <Observed result>
completely blocked

$$$$
>  <Molecule>
O=C(NCCN1CCCC1)c1cc(-c2cccs2)nc2ccccc12 [Compound 12c]

>  <Assayed target>
EV-D68 viral capsid protein VP1

>  <Observed result>
completely blocked

$$$$
